experiment: amyloid nucleation score (Sup35N fusion, yeast selection) (log enrichment); library NNK2; higher = more nucleation; inactive = no reads after selection;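 note: zero at mode of non-aggregating sequences after 7 days selection at 30°C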
Readout name: amyloid nucleation score

Answered examples (5):
[
  {
    "Substance": "HDYYMSVSLMGWY",
    "Experimental result": -1.02
  },
  {
    "Substance": "PIWWLL",
    "Experimental result": -0.822
  },
  {
    "Substance": "GLRLFKMKDFC",
    "Experimental result": 2.14
  },
  {
    "Substance": "NKGSPCISCFVENDLYYLKY",
    "Experimental result": -0.707
  },
  {
    "Substance": "PRVNILWYNRMLYAWFRPVV",
    "Experimental result": -1.21
  }
]

Please look up its amyloid nucleation score: `FSDNTVNTQQVEGIYQIDPN`
-0.705

* * *

test: amyloid nucleation score (Sup35N fusion, yeast selection) (log enrichment); library NNK1; higher = more nucleation; inactive = no reads after selection
Classify as follows. Reported amyloid nucleation score greater than or equal to 0.4: 1. Reported amyloid nucleation score below: 0.

[
  {
    "Substance": "WVFEPMEWFDYKFSYHF",
    "Class name": 0
  },
  {
    "Substance": "TWARRFYATRVTTCLNQRVL",
    "Class name": 1
  },
  {
    "Substance": "CLNGMQPHKWFGMCVWVCPC",
    "Class name": 0
  },
  {
    "Substance": "NWFLYWT",
    "Class name": 1
  },
  {
    "Substance": "CMWSRRWGTLLASILVLSYG",
    "Class name": 0
  },
  {
    "Substance": "MISGCLRVLMRAGVKHYVFM",
    "Class name": 0
  },
  {
    "Substance": "NKQETSKWLWECGDCSRYLY",
    "Class name": 1
  },
  {
    "Substance": "VSRWHQCADPPRCGHRCIWA",
    "Class name": 0
  }
]

Reported amyloid nucleation score reaches at least 0.4 for `ATQNLKY` ?
1

`IAILIYASAFKSSSGCGVKS` , same question.
0

Try this substance too: `CRGNLIL`
0

Next record, please: `FCGDVKLMYWSRFVLMKGHQ`
0

Next substance up: `GSYGERIGEDVVNFARSYNG`
0

Now try `KFRMCEFSGAYTYGVFKNLP` .
1

Lookup `HYDLWCLMFFLVSMMSVNCH`
1

Lookup `IIICFRTWLTCSFCFDSAPC`
0

* * *

assay: amyloid nucleation score (Sup35N fusion, yeast selection) (log enrichment); library NNK1; higher = more nucleation; inactive = no reads after selection
Readout name: amyloid nucleation score
Give only the figure.

[
  {
    "Substance": "IWYFLCICSLYRLEYHLLDC",
    "amyloid nucleation score": -0.405
  }
]

So what does the record say about amyloid nucleation score for `CLEVFKNGCRNLRTGRVINR` ?
1.03

Then `RFFPDNNCMQCDATAEDTGL` ?
-0.246

Entry `LNGIFNNPY` please
-0.512

Same again, this time with `CHYGDPSGWGQLTPSTWTGE`
0.573

Let us now turn to `PMSRIKWILLSGLSKGLSYG`
2.41

Another substance to check: `IYGCTCVDFGLSSNS`
-0.46

* * *

experiment: amyloid nucleation score (Sup35N fusion, yeast selection) (log enrichment); library NNK1; higher = more nucleation; inactive = no reads after selection
Tick MET if amyloid nucleation score is 0.3 or greater. Tick NOT MET if amyloid nucleation score is less than 0.3.

[
  {
    "Sequence string": "MRKTFDAVLNAFFCKALFCY",
    "Class name": "MET"
  },
  {
    "Sequence string": "LGYIVRFQCMYTRRYCSCPD",
    "Class name": "NOT MET"
  },
  {
    "Sequence string": "NCFLCSVARNNYVLRCPSSN",
    "Class name": "MET"
  },
  {
    "Sequence string": "MDVPFLRKN",
    "Class name": "NOT MET"
  },
  {
    "Sequence string": "AWGRLAGYRRGSWMYYCCNS",
    "Class name": "MET"
  },
  {
    "Sequence string": "SFGTQPGQISVN",
    "Class name": "NOT MET"
  },
  {
    "Sequence string": "DGRFLCFHIGSLMSGWDGRQ",
    "Class name": "NOT MET"
  }
]

Here is another sequence to look at.
Determine whether measured amyloid nucleation score meets or exceeds 0.3 for `DACGNWCYCWRALDGQDGSI`
NOT MET

* * *

assay: amyloid nucleation score (Sup35N fusion, yeast selection) (log enrichment); library NNK1; higher = more nucleation; inactive = no reads after selection
Threshold rule: amyloid nucleation score greater than or equal to 0.5 is Y; below that, N.

See these solved cases before continuing.
[
  {
    "Substance": "LSFIACPYIVRVYAFNPRTG",
    "Class name": "Y"
  },
  {
    "Substance": "YASVIVTQHRTMICRQTLCR",
    "Class name": "Y"
  },
  {
    "Substance": "AQGVNSFCIEVFHCEGVMDP",
    "Class name": "N"
  },
  {
    "Substance": "YMVHMK",
    "Class name": "N"
  },
  {
    "Substance": "FTTDVERSVLFEVNLWSNGW",
    "Class name": "Y"
  }
]

hey, is amyloid nucleation score for this one >= 0.5? `AKPMNKTEYFSAYLQLHMGI`
Y

Again, but for `CNIMRSLWLGAIVCMSTMYC`
N

Follow-up entry: `IKAWWMNHGRYHCLTLRVCL`
Y

And what about the substance `LVCVSQVYGALDTCGPVSMM` ?
N

* * *

assay: amyloid nucleation score (Sup35N fusion, yeast selection) (log enrichment); library NNK3; higher = more nucleation; inactive = no reads after selection
Readout name: amyloid nucleation score

Below: 4 substances and their reported amyloid nucleation score.
[
  {
    "Substance": "GAVRMVETTMYFLFTMPSGS",
    "Experimental result": 0.359
  },
  {
    "Substance": "YRFRRDNLWCTWSSYMYMYC",
    "Experimental result": "inactive"
  },
  {
    "Substance": "ITRTYNYLYTCINTFRQPSV",
    "Experimental result": 0.045
  },
  {
    "Substance": "KFSMMYLRYFVWFLRLIMAS",
    "Experimental result": "inactive"
  }
]

Fill in the blank: the reported amyloid nucleation score of `SQYHQASNAMWVLFSGI` is ____.
inactive

Let us now turn to `MPPRVRYR`
inactive

* * *

assay: amyloid nucleation score (Sup35N fusion, yeast selection) (log enrichment); library NNK2; higher = more nucleation; inactive = no reads after selection
Readout name: amyloid nucleation score
// return a plain number; no unit text

[
  {
    "Sequence string": "YFFRMSWPLGPMTSFRTLYL",
    "amyloid nucleation score": -0.608
  },
  {
    "Sequence string": "SAVNHTYVGD",
    "amyloid nucleation score": 0.122
  },
  {
    "Sequence string": "WVNSKLGLKVSLIEAGVEVS",
    "amyloid nucleation score": -0.116
  },
  {
    "Sequence string": "TPSDGCQHMASVVISI",
    "amyloid nucleation score": 0.683
  },
  {
    "Sequence string": "PGLPEERHNCKTYCHRTSRP",
    "amyloid nucleation score": 0.016
  }
]

Any idea what amyloid nucleation score was measured for `LHSVMMLGGRIRPHPQVHSL` ?
0.471

For `AETLPFWGNG` then?
0.695

Request: `PGVRISVPVLLAWNCYC`
8.56

Field entry: `LCAGGVGRRWLVLDTAECDG`
0.59

* * *

Each entry below carries its reported amyloid nucleation score.
test: amyloid nucleation score (Sup35N fusion, yeast selection) (log enrichment); library NNK2; higher = more nucleation; inactive = no reads after selection
Respond with the number and no other words.

Past entries and their recorded results:
[
  {
    "Substance": "YMRSWEVLNMCGVSWLCIFA",
    "Readout name": "amyloid nucleation score",
    "Experimental result": 7.42
  },
  {
    "Substance": "LDRSRTKSWLGDFWG",
    "Readout name": "amyloid nucleation score",
    "Experimental result": -0.074
  }
]

Please give the measured amyloid nucleation score for this substance: `KNKQRYSPIITLLVTKSVAF`
2.67

For `NSVDYSWCCNTSRIRMLVNR` then?
1.2

Thanks! And `SPSSQSKVISCLRVS` ?
0.611

// same read-out, input: `LMSKKGNGIGLEQPLLSSDT`
-0.778

* * *

Measured amyloid nucleation score values are reported for all entries that follow.
experiment: amyloid nucleation score (Sup35N fusion, yeast selection) (log enrichment); library NNK2; higher = more nucleation; inactive = no reads after selection
Lab note: record the figure alone, no unit after it.

[
  {
    "Substance": "VMWLSVRL",
    "amyloid nucleation score": 0.535
  },
  {
    "Substance": "DVACNTRKPCS",
    "amyloid nucleation score": -0.908
  },
  {
    "Substance": "PRSVFCCLDGRHTPRKMPIY",
    "amyloid nucleation score": -0.47
  }
]

amyloid nucleation score for `IFHLGLRR` ?
5.71

Record: `FYGGDA`
0.005

// same read-out, input: `LWRILVALFAISILRTLVMQ`
1.63

What about this substance? `LPGCTTRLHVNLIGALECCK`
0.077

One more substance: `LWLGLFGCVVLHGFRIKMAL`
0.251

What do you have for `VCFYPECVWQSILVLDFHVG` ?
3.42

`PTDHSTEVSLRFCCRGVSEL` ?
-0.403

Same thing, different substance: `NMMGMAYSV`
0.063

Another substance to check: `CSNYFLSEELRHSVEVGSES`
0.463
